// provenance: PubChem BioAssay (EPA / NIEHS)

# Read-out: Fatty Acid-Binding Protein 1 (FABP1), FABP1 (gene 2168)
# Assay Procedure: LTEA_HepaRG_FABP1: Life Technologies and Expression Analysis (LTEA) Assay for Fatty Acid-Binding Protein 1 (FABP1) using HepaRG (AID 2283494)
# Study Conditions: mRNA level, 48 h; actives raise or lower the signal
Active and inactive are the calls of the source. The calls were made as follows: active = hit-call score of the fitted dose curve at least 0.9, where 1 is the maximum; inactive = score below 0.9.
Write down the outcome that applies. Available outcomes: active, inactive

Before answering, review these 5 worked examples.
Compound | Category
OC(c1ccc(Cl)cc1)(c1ccc(Cl)cc1)C(Cl)(Cl)Cl | active
N#CN=C1SCCN1Cc1ccc(Cl)nc1 | inactive
CNC(=O)N(C)c1nnc(C(C)(C)C)s1 | inactive
CCOC(=O)C(C)OC(=O)c1cc(Oc2ccc(C(F)(F)F)cc2Cl)ccc1[N+](=O)[O-] (stereo not drawn) | active
Cc1ccc(N=CN(C)C=Nc2ccc(C)cc2C)c(C)c1 | inactive

Entry CCSC(=O)N1CCCCCC1 : call = ?
inactive

Entry O=P(O)(O)CCCl : call = ?
inactive

Entry COc1ccc(-c2ccccc2)cc1NNC(=O)OC(C)C : call = ?
inactive

Entry Cc1nc(N(C)C)nc(OC(=O)N(C)C)c1C : call = ?
inactive

Entry CC(C)Oc1cccc(NC(=O)c2ccccc2C(F)(F)F)c1 : call = ?
inactive

Entry CNC(=O)Oc1cccc2ccccc12 : call = ?
inactive

Entry CCCN(CC)CC1COC2(CCC(C(C)(C)C)CC2)O1 (stereo not drawn) : call = ?
inactive

Entry CCOc1nc(F)cc2nc(S(=O)(=O)Nc3c(Cl)cccc3Cl)nn12 : call = ?
inactive

###

# Assay Procedure: Tanguay_ZF_120hpf_PIG_legacy: (Legacy) Oregon State University Tanguay Lab 120 Hour Post-fertilization zebrafish Assay for Pigmentation Malformation (AID 2283650);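 also: dechorionated Tropical 5D zebrafish embryos exposed singly from 6 to 120 hpf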
Inconclusive results are not listed. Activity calls are given as the source filed them. Rule for the calls: active = hit-call score of the fitted dose curve at least 0.9, where 1 is the maximum; inconclusive = response in the unintended direction; inactive = score below 0.9.
Assay Endpoint: outcome

Consider the following illustrative entries.
Compound | outcome
Nc1c(Cl)c(Cl)nc(C(=O)O)c1Cl | inactive
COc1ccc(-c2ccccc2)cc1NNC(=O)OC(C)C | inactive
CCCC(=NOCC)C1=C(O)CC(CC(C)SCC)CC1=O (configuration not stated) | inactive
CCC(C)n1c(=O)[nH]c(C)c(Br)c1=O (configuration not stated) | inactive
Cc1c(COC(=O)[C@@H]2[C@H](/C=C(\Cl)C(F)(F)F)C2(C)C)cccc1-c1ccccc1 | inactive
CC(C)Oc1cccc(NC(=O)c2ccccc2C(F)(F)F)c1 | inactive
COP(=S)(OC)SCn1nnc2ccccc2c1=O | inactive
O=C(O)c1c(Cl)ccc2cc(Cl)cnc12 | inactive
CCOP(=S)(OCC)Oc1nc(Cl)n(C(C)C)n1 | inactive
O=C1C2CC=CCC2C(=O)N1SC(Cl)(Cl)Cl (configuration not stated) | inactive

Item: COCc1cnc(C2=NC(C)(C(C)C)C(=O)N2)c(C(=O)O)c1 (configuration not stated) | outcome: inactive

Item: CCN(CC)C(=O)C(C)Oc1cccc2ccccc12 (configuration not stated) | outcome: inactive

###

# Read-out: Cytochrome P450 (CYP2B6), CYP2B6 (gene 1555)
# Assay Procedure: LTEA_HepaRG_CYP2B6: Life Technologies and Expression Analysis (LTEA) Assay for Cytochrome P450 (CYP2B6) using HepaRG (AID 2283481)
# Study Conditions: mRNA level, 48 h; actives raise or lower the signal
Calls of active or inactive are those of the source. Rule for the calls: active = hit-call score of the fitted dose curve at least 0.9, where 1 is the maximum; inactive = score below 0.9.
Write down the outcome that applies. Available outcomes: 1 (yes) for active, 0 (no) for inactive

Compound | Category
CS(=O)(=O)c1cc(C(F)(F)F)ccc1C(=O)c1cnoc1C1CC1 | 0 (no)

Entry COc1ccc(-c2ccccc2)cc1NNC(=O)OC(C)C : call = ?
0 (no)

Entry COCc1cnc(C2=NC(C)(C(C)C)C(=O)N2)c(C(=O)O)c1 (stereo not given) : call = ?
0 (no)

Entry O=C1C2CC=CCC2C(=O)N1SC(Cl)(Cl)Cl (stereo not given) : call = ?
0 (no)

Entry CCN(CC)c1nc(C)cc(OP(=S)(OC)OC)n1 : call = ?
1 (yes)

Entry COP(=O)(OC)O/C(C)=C/C(=O)N(C)C : call = ?
0 (no)

Entry COP(=S)(OC)SCn1nnc2ccccc2c1=O : call = ?
1 (yes)

Entry CCOc1nc(C(Cl)(Cl)Cl)ns1 : call = ?
1 (yes)

Entry CC1(C)CON(Cc2ccccc2Cl)C1=O : call = ?
1 (yes)

Entry CSC(=O)c1c(C(F)F)nc(C(F)(F)F)c(C(=O)SC)c1CC(C)C : call = ?
1 (yes)
